assay: Toxicology study of VD in rats: 5-day continuous subcutaneous infusion by Alzet minipumps, plasma VD by radioimmunoassay, clinical observations; type: in vivo; conditions: female, Sprague Dawley, rat, in vivo, sc, 1.8 mg
Ends that are not written are not given here.
quantity kind: level at 4 h

Consider EVVPPQVLSEPNEEAGAALSPLPEVPPWTGEVSPAQR [VD, Vessel Dilator] . Its measured level at 4 h is 135 ng/mL

###

assay: Toxicology study of VD in canines: 5-day continuous subcutaneous infusion, plasma VD by radioimmunoassay, clinical observations; assay type: in vivo; settings: beagle, dog, in vivo; female canine, 1.44 mg/kg/day (7.20 mg/kg), SC infusion 5 days; hours after start of infusion; read-out: Tmax
Ends that are not written are not given here.
quantity kind: Tmax (h)
// note: answer is a bare numeric in h

Consider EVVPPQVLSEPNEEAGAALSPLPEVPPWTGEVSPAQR [VD, Vessel Dilator] . Its measured Tmax is 96

###

Assay: Toxicology study of VD in canines: 5-day continuous subcutaneous infusion, plasma VD by radioimmunoassay, clinical observations
Type: in vivo
Conditions: beagle, dog, in vivo; male canine, 2.88 mg/(kg·day); maximum tolerated dose not determined; read-out: Cmax that a maximum tolerated dose would exceed
Method: VD was administered to canines via a subcutaneous delivery route. The dosing was performed at a high level to assess the toxicity of VD and to determine if a lethal dosing amount of the VD can be reached by subcutaneous administration. […] All animals were observed twice daily during the first and second 5-day periods for mortality and moribund appearance. […] Body weights and body weight changes were calculated for the corresponding intervals. […]
Ends that are not written are not given here.
quantity kind: Cmax

Consider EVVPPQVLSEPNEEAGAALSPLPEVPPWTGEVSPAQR [VD, Vessel Dilator] . Its measured Cmax is > 655 ng/mL

###

experiment: Toxicology study of VD in canines: 5-day continuous subcutaneous infusion, plasma VD by radioimmunoassay, clinical observations; format: in vivo; conditions: beagle, dog, in vivo; female canine, 2.88 mg/(kg·day); maximum tolerated dose not determined; read-out: Cmax that a maximum tolerated dose would exceed
Ends that are not written are not given here.
quantity kind: Cmax

Consider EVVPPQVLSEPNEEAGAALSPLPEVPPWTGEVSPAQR [VD, Vessel Dilator] . Its measured Cmax is > 579 ng/mL

###

assay: Toxicology study of VD in rats: 5-day continuous subcutaneous infusion by Alzet minipumps, plasma VD by radioimmunoassay, clinical observations; assay type: in vivo; conditions: female, Sprague Dawley, rat, in vivo, sc, 0.18 mg
Ends that are not written are not given here.
quantity kind: level at 8 h
Note to self: number, then unit, no commentary.

Consider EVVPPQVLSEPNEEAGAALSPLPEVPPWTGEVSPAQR [VD, Vessel Dilator] . Its measured level at 8 h is 31.6 ng/mL

###

test: Toxicology study of VD in rats: 5-day continuous subcutaneous infusion by Alzet minipumps, plasma VD by radioimmunoassay, clinical observations; assay type: in vivo; conditions: male, Sprague Dawley, rat, in vivo, sc, Tmax
Ends that are not written are not given here.
quantity kind: Tmax (h)
// note: answer is a bare numeric in h

Consider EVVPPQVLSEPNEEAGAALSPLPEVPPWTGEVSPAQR [VD, Vessel Dilator] . Its measured Tmax is 81.3

###

test: Toxicology study of VD in canines: 5-day continuous subcutaneous infusion, plasma VD by radioimmunoassay, clinical observations; format: in vivo; conditions: beagle, dog, in vivo; female canine, 2.88 mg/kg/day (14.4 mg/kg), SC infusion 5 days; read-out: Cmax
Ends that are not written are not given here.
quantity kind: Cmax (ng/mL)
// note: answer is a bare numeric in ng/mL

Consider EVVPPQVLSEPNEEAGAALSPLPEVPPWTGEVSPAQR [VD, Vessel Dilator] . Its measured Cmax is 579

Source listed as patent US9616107B2.
